assay-overview: Compound stability in rat liver microsomes
Type: in vitro ADME
particulars: pH 7.4; rat liver microsomes 0.5 mg protein/mL, compound 5 μM, NADPH, 37° C.; read-out: Rat T1/2
recorded-endpoint: half-life at 5 μM (h)

Field: example entries. Status: answers known.
CC(CS(=O)(=O)N[C@H]1COC2C1OC[C@H]2Nc1nc(Nc2cnn(C)c2)ncc1Cl)C(F)F (stereo partly shown) [Ex. 42]
0.493
CC(C)CS(=O)(=O)N[C@@H]1COC2C1OC[C@@H]2Nc1nc(Nc2cnn(C)c2)ncc1Cl (stereo partly shown) [Ex. 13]
0.69
Cn1cc(Nc2ncc(Cl)c(N[C@H]3COC4C3OC[C@H]4NS(=O)(=O)CC(F)(F)F)n2)cn1 (stereo partly shown) [Ex. 5]
1.38
Cn1cc(Nc2ncc(Cl)c(N[C@@H]3COC4C3OC[C@@H]4NS(=O)(=O)c3ccc(F)cc3)n2)cn1 (stereo partly shown) [Ex. 8]
1.13
CC(CF)CS(=O)(=O)N[C@H]1COC2C1OC[C@H]2Nc1nc(Nc2cnn(C)c2)ncc1Cl (stereo partly shown) [Ex. 37]
0.582

P: O=S(=O)(CC1CC1)N[C@H]1COC2C1OC[C@H]2Nc1nc(Nc2cnn(C3CCNCC3)c2)ncc1Cl (stereo partly shown) [Ex. 35]
Q: CNC(=O)N[C@H]1COC2C1OC[C@H]2Nc1nc(Nc2cnn(C)c2)ncc1Cl (stereo partly shown) [Ex. 1]
# returns the entry with the larger half-life at 5 μM; inputs P and Q # reply format: chosen label
P
